- study-target: PRMT5/MEP50 complex (Homo sapiens, UniProt O14744)
- Construct: purchased Reaction Biology Corporation
- Sequence (O14744 2-637 limits assumed): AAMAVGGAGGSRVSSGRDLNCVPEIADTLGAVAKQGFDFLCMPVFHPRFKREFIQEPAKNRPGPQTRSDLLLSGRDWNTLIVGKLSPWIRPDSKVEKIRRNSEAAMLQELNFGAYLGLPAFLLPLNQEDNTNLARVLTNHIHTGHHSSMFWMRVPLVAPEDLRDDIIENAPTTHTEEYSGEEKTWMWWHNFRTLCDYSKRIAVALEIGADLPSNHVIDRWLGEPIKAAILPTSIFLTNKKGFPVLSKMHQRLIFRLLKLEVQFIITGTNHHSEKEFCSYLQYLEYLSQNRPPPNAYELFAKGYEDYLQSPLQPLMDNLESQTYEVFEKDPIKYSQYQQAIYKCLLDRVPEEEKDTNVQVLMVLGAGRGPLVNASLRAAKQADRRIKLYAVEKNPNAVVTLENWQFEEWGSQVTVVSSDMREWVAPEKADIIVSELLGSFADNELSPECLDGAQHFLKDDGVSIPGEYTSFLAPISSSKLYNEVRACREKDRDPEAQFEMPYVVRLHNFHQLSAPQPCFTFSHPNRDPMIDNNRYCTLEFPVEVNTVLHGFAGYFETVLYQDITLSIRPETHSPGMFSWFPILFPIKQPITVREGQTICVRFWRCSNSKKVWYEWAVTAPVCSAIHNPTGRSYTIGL
- Sequence (Q9BQA1 2-342 partner limits assumed): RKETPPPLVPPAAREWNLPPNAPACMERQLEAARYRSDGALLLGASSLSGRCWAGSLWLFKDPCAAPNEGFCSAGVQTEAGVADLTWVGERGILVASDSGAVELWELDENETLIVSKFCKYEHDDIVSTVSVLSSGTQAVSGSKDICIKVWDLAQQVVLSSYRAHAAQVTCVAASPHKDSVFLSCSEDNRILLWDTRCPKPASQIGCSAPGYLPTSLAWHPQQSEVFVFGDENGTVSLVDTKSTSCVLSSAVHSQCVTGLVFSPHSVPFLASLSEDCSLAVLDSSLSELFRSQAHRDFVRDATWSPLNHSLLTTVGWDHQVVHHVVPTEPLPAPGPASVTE
- procedure-summary: PRMT5:MEP50 HotSpot Assay (full-length histone H2A substrate, plus and minus MTA)
- Format: biochemical
- condition-context: IC50 + 2 μM MTA, in the presence of 2 μM MTA
This section presents compounds with their documented IC50 values.
measurement-kind: IC50 (µM)

{"compound": "COc1cc(F)c(-c2c(-c3ccc4c(=O)[nH]nc(CN)c4c3)cnn2C)c(C#N)c1OC1CC1 (atropisomer, axis not shown; (M)) [Example 16-71]", "measurement-kind": "IC50", "unit-abbreviation": "µM", "test-value": 0.142}
{"compound": "Cn1ncc(-c2cc3c(CN)n[nH]c(=O)c3s2)c1-c1ccc2ccccc2c1C#N", "measurement-kind": "IC50", "unit-abbreviation": "µM", "test-value": 2.31}
{"compound": "Cn1ncc(-c2ccc3c(=O)[nH]cc(CN)c3c2)c1-c1ccc2ccccc2c1C#N", "measurement-kind": "IC50", "unit-abbreviation": "µM", "test-value": 2.93}
{"compound": "Cn1ncc(-c2cc([C@@H]3CCCO3)c3c(=O)[nH]nc(CN)c3c2)c1-c1sc2ccccc2c1C#N", "measurement-kind": "IC50", "unit-abbreviation": "µM", "test-value": 0.0163}
{"compound": "CCOc1cc(-c2cnn(C)c2-c2c(F)c(C)c3cc(Cl)cnc3c2C#N)cc2c(CN)n[nH]c(=O)c12 (single isomer, unassigned) [Example 16-99]", "measurement-kind": "IC50", "unit-abbreviation": "µM", "test-value": 9.87}
{"compound": "Cc1cc(-c2cnn(C)c2-c2sc3ccccc3c2C#N)cc2c(CN)n[nH]c(=O)c12", "measurement-kind": "IC50", "unit-abbreviation": "µM", "test-value": 0.126}
{"compound": "COc1cccc2c(C#N)c(-c3c(-c4ccc5c(=O)[nH]nc(CN)c5c4)cnn3C)sc12", "measurement-kind": "IC50", "unit-abbreviation": "µM", "test-value": 0.165}
